Reference source for all entries: PubChem BioAssay (NCI)

run-description: NCI Yeast Anticancer Drug Screen. Data for the rad50EPP+ strain (AID 151);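 also: 0% = growth of vehicle-treated control cultures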
condition: S. cerevisiae rad50 mutant strain, at 1.2 µM, stronger effect = higher value
Compounds without any hit were thinned out: in the full panel of roughly 79,000, 15% have a hit.
measured-parameter: growth inhibition (%)
Give the value, in units of %, as a plain number.

C[C](C)(C)[Ge]([O][Ge]([c]1ccccc1)[c]1ccccc1)([O][Ge]([c]1ccccc1)[c]1ccccc1)[C](C)(C)C; 0
NC1=NNC2(C(N)=N1)c1ccccc1-c1ccccc12; 3
COC(=O)Nc1cn2ccc(C(Cl)=C(Cl)Cl)cc2n1; -27

Lab book: growth inhibition of CCCCOP(=O)(CCCP(=O)(OCCCC)OCCCC)OCCCC noted as -4

----------
run-description: NCI Yeast Anticancer Drug Screen. Data for the rad50EPP+ strain (AID 151);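 also: 0% = growth of vehicle-treated control cultures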
condition: S. cerevisiae rad50 mutant strain, at 3.7 µM
Compounds without any hit were thinned out: in the full panel of roughly 79,000, 15% have a hit. Activity calls are given as the source filed them. Cut-off read from the data, not from the text of the source: active = growth inhibition above about 70%; inactive = the rest.
In this exercise, the only acceptable responses are t (active), f (inactive)

COc1cccc2c1C(=O)c1c(O)c3c(c(O)c1C2=O)C[C@@](O)(C(C)=O)C[C@@H]3OC1CC(OC(C)=O)C(OC(C)=O)C(C)O1 (stereo not given in full); f
Cc1cc2c3ccccc3c3ccccc3c2nn1; f
CCOC(=O)c1[nH]n(-c2ccccc2)c(=O)c1C=NC(=S)C(N)=S; f

(Q) // outcome(item) with item = CCO/C(C)=C(/C#N)C(N)=S
(A) f

(Q) // outcome(item) with item = c1ccc2cc(NCNc3ccc4ccccc4c3)ccc2c1
(A) f

(Q) // outcome(item) with item = CCOc1ccc(NC(=O)C2=C(C)NC(C)=C(C(=O)Nc3ccc(OCC)cc3)C2c2cccc([N+](=O)[O-])c2)cc1
(A) f

(Q) // outcome(item) with item = CC(C)(C)c1ccc(NS(=O)(=O)c2ccc(N)cc2)cc1
(A) f

(Q) // outcome(item) with item = C#CCN(Cc1ccc2nc(N)[nH]c(=O)c2c1)c1ccc(C(=O)NC(CCC(=O)O)C(=O)O)cc1 (stereo not given)
(A) f

(Q) // outcome(item) with item = O=[N+]([O-])c1cc(F)c(F)cc1Sc1cc(F)c(F)cc1[N+](=O)[O-]
(A) f

(Q) // outcome(item) with item = Cc1c2cccc(Sc3ccccc3)c2c2c3c(cccc13)[S+](c1ccccc1)C2 (stereo not given)
(A) f

----------
We begin with a simple list: items and their reported growth inhibition.
run-description: NCI Yeast Anticancer Drug Screen. Data for the mec2-1 strain (AID 157)
condition: S. cerevisiae mec2-1 strain, at 50.0 µM (retest, dose inferred, filed as 5.0), stronger effect = higher value
Description: Growth inhibition of yeast strains with defined genetic alterations is measured as a screen for potential anti-cancer activity. Selected strains with alterations in DNA damage repair or cell cycle control were exposed to compounds and growth inhibition was measured relative to vehicle treated controls. The strain used in this assay is mec2-1
This is part of a sample that, as a whole, favours compounds with a hit. Of some 79,000 tested, about 15% had one in any assay.
Give the value, in units of %, as a plain number.

// known answers, use as guide
CCOC(=O)C#Cc1ccc([N+](=O)[O-])cc1; 36
O=C(O)C1CC(c2ccccc2)=NN1c1ccccc1 (stereo not drawn); 84
O=C1C=C(c2ccccc2)OC1(c1ccccc1)N1CCOCC1 (stereo not drawn); 0

Lab book: growth inhibition of CNC(=O)OCc1c(COC(=O)NC)c(-c2ccc(Cl)c(Cl)c2)n2c1SCC2 noted as 18

Lab book: growth inhibition of NC1CCCCC1N.Nc1c(N=Nc2ccc(-c3ccc(N=Nc4cc(S(=O)(=O)[O-])c5ccccc5c4N)cc3)cc2)cc(S(=O)(=O)[O-])c2ccccc12.[OH3+].[OH3+].[Pt+4] noted as 84

Lab book: growth inhibition of CS(=O)(=O)OCCN(CCOS(C)(=O)=O)c1ccc(C=Nc2ccc(-c3csc(COc4ccccc4)n3)cc2)cc1 noted as 96

Lab book: growth inhibition of CC(C)(C)c1ccc(NS(=O)(=O)c2ccc(N)cc2)cc1 noted as -5

Lab book: growth inhibition of O=C1OC(C2=CC(=O)c3ccccc3C2=O)C(Cl)=C1Cl (stereo not drawn) noted as 47

Lab book: growth inhibition of CCC(C)(C)c1ccc(Oc2cccc(C(=O)O)c2)cc1 noted as 48

Lab book: growth inhibition of CN(C)c1ccc(C2CC(C)(O)Oc3cc4c(cc32)OCO4)cc1 (stereo not drawn) noted as 12

Lab book: growth inhibition of O=C(/C=C/c1cc(Cl)cc(Cl)c1O)c1cccc(O)c1 noted as 99

Lab book: growth inhibition of O=C1C(=O)c2ccccc2C(O)=C1C(C1=C(O)c2ccccc2C(=O)C1=O)c1ccc(Cl)cc1 noted as -6

Lab book: growth inhibition of CC(=O)ON=C1C=CC(=C(C#N)c2ccc(Cl)cc2)C=C1 noted as 99

Lab book: growth inhibition of COc1oc(C(=O)NC2CCCCC2)c(-c2ccc(Cl)cc2)c1S(=O)(=O)c1ccccc1 noted as 91

Lab book: growth inhibition of CCOC(=O)c1cc([N+](=O)[O-])c(Sc2ncnc3nc[nH]c23)c([N+](=O)[O-])c1 noted as 75

Lab book: growth inhibition of CC(O)=NC(Cc1ccc2ccccc2c1)C(O)=NC(Cc1ccc(Cl)cc1)C(O)=NC(Cc1c[nH]c2ccccc12)C(O)=NC(CO)C(O)=NC(Cc1ccc(O)cc1)C(O)=NC(CCCN=C(N)N)C(O)=NC(CC(C)C)C(O)=NC(CCCN=C(N)N)C(=O)N1CCCC1C(O)=NC(C)C(=N)O (stereo not drawn) noted as -6

Lab book: growth inhibition of O=C1C=C(N2CCN(c3ccccn3)CC2)C(=O)c2c(O)ccc(O)c21 noted as 84

Lab book: growth inhibition of CCCC/C([O-])=C1/C(=O)N(c2ccccc2)N=C1C.CCCC/C([O-])=C1/C(=O)N(c2ccccc2)N=C1C.[Cu+2] noted as 29
